- System: ALL-SIL
- measurement_notes: selective drug sensitivity score (sDSS, relative to normal bone marrow) (sDSS (score)); higher = more potent and effective on the cell line relative to normal bone marrow cells;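 further: ALL cell lines in 384-well plates, five doses spanning 10,000-fold, each plate scaled between vehicle and 100 µmol/L benzalkonium chloride controls, sDSS an adapted area-under-curve metric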
- particulars: 72 h
Class field: derived from selective drug sensitivity score; ranges bin 1 (below -0.5), bin 2 (-0.5 to below 10), bin 3 (10 or more)

molecule: C[C@@H]1CCN(C(=O)CC#N)C[C@@H]1N(C)c1ncnc2[nH]ccc12 [Tofacitinib] (top concentration 5000 nM)
assigned_category: bin 1
//
molecule: Cc1[nH]nc(C(F)(F)F)c1Cc1sc2c(c1C(=O)N1C[C@](C)(O)CO1)c(=O)n(C)c(=O)n2C(C)C [AZD3965] (top concentration 1000 nM)
assigned_category: bin 2
//
molecule: CC(C)Oc1ccc(-c2nn([C@@H](C)c3oc4ccc(F)cc4c(=O)c3-c3cccc(F)c3)c3ncnc(N)c23)cc1F [TGR-1202] (top concentration 2500 nM)
assigned_category: bin 2
//
molecule: Nc1ccn([C@@H]2O[C@H](CO)[C@@H](O)C2(F)F)c(=O)n1 [Gemcitabine] (top concentration 1000 nM)
assigned_category: bin 3
//
molecule: CC(=O)O[C@]1(C(C)=O)CC[C@H]2[C@@H]3C=C(C)C4=CC(=O)CC[C@]4(C)[C@H]3CC[C@@]21C [Megestrol_acetate] (top concentration 10000 nM)
assigned_category: bin 2
//
molecule: CO[C@@H]1[C@H](N(C)C(=O)c2ccccc2)C[C@H]2O[C@]1(C)n1c3ccccc3c3c4c(c5c6ccccc6n2c5c31)C(=O)NC4 [Midostaurin] (top concentration 10000 nM)
assigned_category: bin 3
//
molecule: c1cn2cc(-c3ccc4cn[nH]c4c3)nc(Nc3ccc(N4CCOCC4)cc3)c2n1 [Entospletinib] (top concentration 5000 nM)
assigned_category: bin 1
//
molecule: O=C1CCc2c(Oc3ccc4c(c3)[C@@H]3[C@H](O4)[C@H]3c3nc4cc(C(F)(F)F)ccc4[nH]3)ccnc2N1 [Lifirafenib (BGB-283)] (top concentration 10000 nM)
assigned_category: bin 3
//
molecule: O=C(Nc1cc(Cl)cc2c1[nH]c1cnccc12)c1cccnc1 [PS-1145] (top concentration 25000 nM)
assigned_category: bin 2
//
molecule: FC(F)(F)c1ccc(CNc2ccc(Cc3c[nH]c4ncc(Cl)cc34)cn2)cn1 [Pexidartinib] (top concentration 10000 nM)
assigned_category: bin 1
//
molecule: CCNc1nc(Nc2cc(F)c(C(=O)N3CCOCC3)cc2OC)ncc1C(F)(F)F [GNE-7915] (top concentration 1000 nM)
assigned_category: bin 2
//
molecule: CN(C(=O)c1ccc(F)cc1C(F)(F)F)C1CCN(c2nnc(-c3ccnn3C)c3ccccc23)CC1 [Taladegib] (top concentration 10000 nM)
assigned_category: bin 2
//
molecule: CCNC(=O)C[C@@H]1N=C(c2ccc(Cl)cc2)c2cc(OC)ccc2-n2c(C)nnc21 [Molibresib] (top concentration 10000 nM)
assigned_category: bin 1
//
molecule: O=S(=O)(c1cccc2c(O)nccc12)N1CCCNCC1 [Hydroxyfasudil] (top concentration 19000 nM)
assigned_category: bin 1
//
molecule: CC1(C)CCC(c2ccc(Cl)cc2)=C(CN2CCN(c3ccc(C(=O)NS(=O)(=O)c4ccc(N[C@H](CCN5CCOCC5)CSc5ccccc5)c(S(=O)(=O)C(F)(F)F)c4)cc3)CC2)C1 [Navitoclax] (top concentration 10000 nM)
assigned_category: bin 3
//
molecule: CN(Cc1cnc2nc(N)nc(N)c2n1)c1ccc(C(=O)N[C@@H](CCC(=O)O)C(=O)O)cc1 [Methotrexate] (top concentration 5000 nM)
assigned_category: bin 3
//
molecule: COCCNCc1ccc(-c2cc3nccc(Oc4ccc(NC(=O)C5(C(=O)Nc6ccc(F)cc6)CC5)cc4F)c3s2)nc1 [Sitravatinib] (top concentration 2500 nM)
assigned_category: bin 3
//
molecule: O=C(NCc1ccncc1)C12CC3CC(C1)CC(c1ccc(Cl)cc1)(C3)C2 (top concentration 50000 nM)
assigned_category: bin 2
//
molecule: NC(=O)/C(=C/n1cnc(-c2cc(C(F)(F)F)cc(C(F)(F)F)c2)n1)c1cncnc1 [Eltanexor] (top concentration 10000 nM)
assigned_category: bin 3
//
molecule: CC(O)(CS(=O)(=O)c1ccc(F)cc1)C(=O)Nc1ccc(C#N)c(C(F)(F)F)c1 (centres undefined) [Bicalutamide] (top concentration 10000 nM)
assigned_category: bin 1
//
molecule: CC[C@H](CO)Nc1nc(NCc2ccccc2)c2ncn(C(C)C)c2n1 [Seliciclib] (top concentration 10000 nM)
assigned_category: bin 2
//
molecule: CCn1c(-c2nonc2N)nc2c(C#CC(C)(C)O)ncc(OC[C@H]3CCCNC3)c21 (top concentration 10000 nM)
assigned_category: bin 2
//
molecule: CCN1CCN(c2ccc(Nc3cc(N(C)C(=O)Nc4c(Cl)c(OC)cc(OC)c4Cl)ncn3)cc2)CC1 [Infigratinib] (top concentration 1000 nM)
assigned_category: bin 2

====

- Test system: ALL-PO
- measurement_notes: selective drug sensitivity score (sDSS, relative to normal bone marrow) (sDSS (score)); higher = more potent and effective on the cell line relative to normal bone marrow cells
- particulars: 72 h
# reported selective drug sensitivity score; entries follow

molecule: C=CC(=O)Nc1cc(Nc2nccc(-c3cn(C)c4ccccc34)n2)c(OC)cc1N(C)CCN(C)C [Osimertinib] (top concentration 2500 nM)
subject_of_test: ALL-PO
selective drug sensitivity score: -0.72
--
molecule: CCC1(c2ccc(N)cc2)CCC(=O)NC1=O (stereo not drawn) [Aminoglutethimide] (top concentration 10000 nM)
subject_of_test: ALL-PO
selective drug sensitivity score: 0
--
molecule: CCCCNc1ncc(C(=O)NCc2ccc(-n3ccnc3)cc2)c(NC2CCC(O)CC2)n1 (stereo not drawn) [UNC2881] (top concentration 2500 nM)
subject_of_test: ALL-PO
selective drug sensitivity score: 7.2
--
molecule: COCC[n+]1c2c(n(Cc3cnccn3)c1C)C(=O)c1ccccc1C2=O [Sepantronium_bromide] (top concentration 10000 nM)
subject_of_test: ALL-PO
selective drug sensitivity score: 4.44
--
molecule: CCOc1ccn(-c2ccc(F)cc2)c(=O)c1C(=O)Nc1ccc(Oc2ccnc(N)c2Cl)c(F)c1 (top concentration 2500 nM)
subject_of_test: ALL-PO
selective drug sensitivity score: 2.7
--
molecule: CC[C@@H]1CN(C(=O)NCC(F)(F)F)C[C@@H]1c1cnc2cnc3[nH]ccc3n12 [Upadacitinib] (top concentration 10000 nM)
subject_of_test: ALL-PO
selective drug sensitivity score: -7.16
--
molecule: CN1CC[C@@H](NC(=O)Nc2ccc(C#N)cc2)C[C@@H]1c1nc2ccccc2[nH]1 [Glasdegib] (top concentration 1000 nM)
subject_of_test: ALL-PO
selective drug sensitivity score: 0
--
molecule: C[C@H]1C=C2C(=O)O[C@H]3CC[C@@H](C1)[C@@]23O [Galiellalactone] (top concentration 25000 nM)
subject_of_test: ALL-PO
selective drug sensitivity score: -0.34

====

# reported selective drug sensitivity score; entries follow
- Tested on: NALL-1
- measurement_notes: selective drug sensitivity score (sDSS, relative to normal bone marrow) (sDSS (score)); higher = more potent and effective on the cell line relative to normal bone marrow cells
- particulars: 72 h

compound: COc1cc2ncnc(Nc3ccc(F)c(Cl)c3)c2cc1OCCCN1CCOCC1 [Gefitinib] (top concentration 10000 nM)
subject_of_test: NALL-1
selective drug sensitivity score: 1.06

compound: CO[C@@H]1[C@H](N(C)C(=O)c2ccccc2)C[C@H]2O[C@]1(C)n1c3ccccc3c3c4c(c5c6ccccc6n2c5c31)C(=O)NC4 [Midostaurin] (top concentration 10000 nM)
subject_of_test: NALL-1
selective drug sensitivity score: 5.36

compound: NC1(C(=O)N[C@@H](CCO)c2ccc(Cl)cc2)CCN(c2ncnc3[nH]ccc23)CC1 [AZD-5363] (top concentration 10000 nM)
subject_of_test: NALL-1
selective drug sensitivity score: 4.72

====

- Test system: P12-ICHIKAWA
- measurement_notes: selective drug sensitivity score (sDSS, relative to normal bone marrow) (sDSS (score)); higher = more potent and effective on the cell line relative to normal bone marrow cells
- particulars: 72 h
# reported selective drug sensitivity score; entries follow

molecule: C=CC(=O)Nc1cccc(Nc2nc(Nc3ccc(N4CCN(C(C)=O)CC4)cc3OC)ncc2C(F)(F)F)c1 [Rociletinib] (top concentration 10000 nM)
selective drug sensitivity score: 1.94
//
molecule: NC(=O)/C(=C/n1cnc(-c2cc(C(F)(F)F)cc(C(F)(F)F)c2)n1)c1cncnc1 [Eltanexor] (top concentration 10000 nM)
selective drug sensitivity score: 7.96
//
molecule: C[C@@H]1COC(Nc2ccc3ncnc(Nc4ccc(OCc5nccs5)c(Cl)c4)c3c2)=N1 [Varlitinib] (top concentration 10000 nM)
selective drug sensitivity score: 3.02
//
molecule: C#Cc1cccc(Nc2ncnc3cc(OCCOC)c(OCCOC)cc23)c1 [Erlotinib] (top concentration 10000 nM)
selective drug sensitivity score: 1.56
//
molecule: Cn1ncc(Cl)c1-c1cc(C(=O)N[C@H](CN)Cc2ccc(F)c(F)c2)oc1Cl [Uprosertib] (top concentration 10000 nM)
selective drug sensitivity score: 1.9
//
molecule: CC1(C)CCC(CN2CCN(c3ccc(C(=O)NS(=O)(=O)c4ccc(NCC5CCOCC5)c([N+](=O)[O-])c4)c(Oc4cnc5[nH]ccc5c4)c3)CC2)=C(c2ccc(Cl)cc2)C1 [Venetoclax] (top concentration 1000 nM)
selective drug sensitivity score: -2.4
//
molecule: CC(C)[C@H](C(=O)Nc1ccc(C(=O)NO)cc1)c1ccccc1 [AR-42] (top concentration 10000 nM)
selective drug sensitivity score: 8.28
//
molecule: CN(c1ncccc1CNc1nc(Nc2ccc3c(c2)CC(=O)N3)ncc1C(F)(F)F)S(C)(=O)=O (top concentration 10000 nM)
selective drug sensitivity score: -0.08
//
molecule: Cn1cc(CNCC2CCN(c3ncc(C(=O)NO)cn3)CC2)c2ccccc21 [Quisinostat] (top concentration 1000 nM)
selective drug sensitivity score: 3.78
//
molecule: COCCNCc1ccc(-c2cc3nccc(Oc4ccc(NC(=O)C5(C(=O)Nc6ccc(F)cc6)CC5)cc4F)c3s2)nc1 [Sitravatinib] (top concentration 2500 nM)
selective drug sensitivity score: 0.08
//
molecule: CCC1(c2ccc(N)cc2)CCC(=O)NC1=O (stereo not drawn) [Aminoglutethimide] (top concentration 10000 nM)
selective drug sensitivity score: 0
//
molecule: Cc1ccc(-c2cc(C(F)(F)F)nn2-c2ccc(S(N)(=O)=O)cc2)cc1 [Celecoxib] (top concentration 10000 nM)
selective drug sensitivity score: 0.24
//
molecule: Cc1cc(Nc2nc(N[C@@H](C)c3ncc(F)cn3)ncc2Cl)[nH]n1 [AZD1480] (top concentration 1000 nM)
selective drug sensitivity score: -4.28
